biological target: UniProt P25774; experiment: CatS functional enzyme assay; format: biochemical; settings: ratio Ki(hCatS)/Ki(hCatK)
Sequence (P25774 115-331): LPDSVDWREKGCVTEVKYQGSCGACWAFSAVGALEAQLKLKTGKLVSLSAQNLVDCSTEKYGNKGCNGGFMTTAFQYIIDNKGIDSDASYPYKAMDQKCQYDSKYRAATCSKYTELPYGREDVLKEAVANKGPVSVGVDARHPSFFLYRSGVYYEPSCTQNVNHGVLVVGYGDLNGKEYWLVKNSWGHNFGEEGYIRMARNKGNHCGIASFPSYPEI
OBSERVABLE: Selectivity Ki(hCatS)/Ki(hCatK)

SMILES_STR: O=C(N[C@H](C(=O)N1C[C@H](Cl)[C@H]2OCC(=O)[C@H]21)C1CCCCC1)c1ncc(-c2ccncn2)s1
Selectivity Ki(hCatS)/Ki(hCatK): 4.6

a: Cc1cnncc1-c1ccc(C(=O)N[C@H](C(=O)N2C[C@H](Cl)[C@H]3OCC(=O)[C@H]32)C2CCCCC2)s1
b: Cc1cc(-c2ccc(C(=O)N[C@H](C(=O)N3C[C@H](Cl)[C@H]4OCC(=O)[C@H]43)C3CCCCC3)s2)c(C)cn1
(Q) Thinking about recorded Selectivity Ki(hCatS)/Ki(hCatK) values, which is higher, a or b ? Answer with the label corresponding to your selection.
(A) b
(b: 18.6, a: 7.3)

* * *

molecular target: UniProtKB P43235; experiment: CatK functional enzyme assay; settings: recombinant human CatK, substrate Z-FR-AMC 40 μM, pH 5.5; Ki by Cheng Prusoff equation; read-out: hCatK, Ki
Sequence (P43235 115-329): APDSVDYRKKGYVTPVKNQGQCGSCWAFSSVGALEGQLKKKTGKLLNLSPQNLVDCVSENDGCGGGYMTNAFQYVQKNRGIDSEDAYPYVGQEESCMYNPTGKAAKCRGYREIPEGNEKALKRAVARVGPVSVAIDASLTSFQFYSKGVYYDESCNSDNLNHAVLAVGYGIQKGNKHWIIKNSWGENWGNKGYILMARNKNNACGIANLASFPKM
OBSERVABLE: Ki (nM)

Some molecules with known Ki results, for comparison:
MOLECULE: O=C(N[C@H](C(=O)N1C[C@H](Cl)[C@H]2OCC(=O)[C@H]21)C1CCCCC1)c1ccc(-c2cccnn2)o1
U: nM
Ki: 225
//
MOLECULE: O=C(N[C@H](C(=O)N1C[C@H](Cl)[C@H]2OCC(=O)[C@H]21)C1CCCCC1)c1cccc(-c2cn[nH]c2)c1 [Example C1, reference compound]
U: nM
Ki: 38
//
MOLECULE: O=C(N[C@H](C(=O)N1C[C@H](Cl)[C@H]2OCC(=O)[C@H]21)C1CCCCC1)c1sc(-c2ccnnc2)cc1F
U: nM
Ki: 104
//
MOLECULE: Cc1ccc(-c2ccc(C(=O)N[C@H](C(=O)N3C[C@H](Cl)[C@H]4OCC(=O)[C@H]43)C3CCCCC3)s2)nn1
U: nM
Ki: 16

a: O=C(N[C@H](C(=O)N1C[C@H](Cl)[C@H]2OCC(=O)[C@H]21)C1CCCCC1)c1ccc(-c2ccc[n+]([O-])n2)s1
b: O=C(N[C@H](C(=O)N1C[C@H](Cl)[C@H]2OCC(=O)[C@H]21)C1CCCCC1)c1ccc(-c2ccnc(C3CC3)c2)s1
(Q) // which entry reports the smaller Ki, a or b ? Answer with the label corresponding to your selection.
(A) b

* * *

Target: UniProt P07711
Sequence (P07711 114-333): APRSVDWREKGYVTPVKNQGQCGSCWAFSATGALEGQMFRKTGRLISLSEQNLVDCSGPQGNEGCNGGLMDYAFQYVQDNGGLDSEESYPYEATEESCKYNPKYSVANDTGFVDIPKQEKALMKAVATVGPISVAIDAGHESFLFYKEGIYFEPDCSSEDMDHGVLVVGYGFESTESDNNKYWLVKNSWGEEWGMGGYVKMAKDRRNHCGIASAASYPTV
Assay: CatL functional enzyme assay
Type: biochemical
Conditions: read-out: hCatL, inhibition [%] at 31.6 μM
Experimental: Reference and test compounds were assayed for inhibitory potency (IC50) against human cathepsins using the following assay setups: Recombinant human cathepsins (CatS, CatK, CatL) were purchased from a Enzo Life Sciences. […] Flourogenic substrate turnover was detected using a microplate reader (Synergy™ H4, BioTek). Ki values were calculated using the Cheng Prusoff equation (Cheng & Prosoff 1973).
OBSERVABLE: inhibition at 31.6 µM (%)

Some molecules with known inhibition at 31.6 µM results, for comparison:
MOLECULE: O=C(N[C@H](C(=O)N1C[C@H](Cl)[C@H]2OCC(=O)[C@H]21)C1CCCCC1)c1cccc(-c2cn[nH]c2)c1 [Example C1, reference compound]
TGT: UniProt P07711
inhibition at 31.6 µM / %: 71
//
MOLECULE: Cc1cnnc(-c2ccc(C(=O)N[C@H](C(=O)N3C[C@H](Cl)[C@H]4OCC(=O)[C@H]43)C3CCCCC3)s2)c1 [Example 44]
TGT: UniProt P07711
inhibition at 31.6 µM / %: 33
//
MOLECULE: O=C(N[C@H](C(=O)N1C[C@H](Cl)[C@H]2OCC(=O)[C@H]21)C1CCCCC1)c1cc(F)c(-c2cncnc2)s1 [Example 37]
TGT: UniProt P07711
inhibition at 31.6 µM / %: 29

P: O=C(N[C@H](C(=O)N1C[C@H](Cl)[C@H]2OCC(=O)[C@H]21)C1CCCCC1)c1ncc(-c2cncnc2)s1 [Example 24]
Q: O=C(N[C@H](C(=O)N1C[C@H](Cl)[C@H]2OCC(=O)[C@H]21)C1CCCCC1)c1ccc(-c2cnnc(O)c2)s1 [Example 80]
R: Cc1ncccc1-c1ccc(C(=O)N[C@H](C(=O)N2C[C@H](Cl)[C@H]3OCC(=O)[C@H]32)C2CCCCC2)s1 [Example 83]
S: O=C(N[C@H](C(=O)N1C[C@H](Cl)[C@H]2OCC(=O)[C@H]21)C1CCCCC1)c1sc(-c2cccnc2)nc1C(F)(F)F [Example 23]
T: O=C(N[C@H](C(=O)N1C[C@H](Cl)[C@H]2OCC(=O)[C@H]21)C1CCCCC1)c1ncc(-c2ccccn2)s1 [Example 46]
(Q) Falling order of inhibition at 31.6 µM, please. Would you mind listing the labels in the order requested?
(A) Q, P, T, R, S
